tested on: cultured human mast cells; test: Degranulation inhibition test using cultured human mast cells (IgE cross-linking, β-Hexosaminidase release); type: cell-based; settings: Mast cell; Tables 1-x, compounds A; cultured human mast cells; read-out: human degranulation ave. IC50
pIC50: −log10 of the molar value.
Assay endpoint: pIC50

Would you mind telling me what pIC50 value was observed for Cc1ccnc(Nc2cccc(-c3cnc(CN4CCCCC4=O)s3)n2)c1 [Compound A-401] ?
6.00 to 7.00

Any idea what pIC50 was measured for CNC(=O)CN1CCN(c2ncc(-c3cccc(Nc4cc(C)ccn4)n3)s2)CC1=O [Compound A-466] ?
< 6.00

Value lookup for pIC50; key = Cc1ccnc(Nc2cccc(-c3cnc(N(C)Cc4nc(C(=O)O)cs4)s3)n2)c1 [Compound A-609]
< 6.00

Quick one: pIC50 for Cc1ccnc(Nc2cccc(-c3cnc(N4CCC(C(C)C(=O)O)CC4)s3)n2)c1 (centres unmarked) [Compound A-652] ?
> 7.00

Need pIC50, item COCCN(C)c1ncc(-c2cccc(Nc3cc(C)ccn3)n2)s1 [Compound A-520]
6.00 to 7.00
